- protocolSummary: ACEA_AR_antagonist_AUC_viability: ACEA Biosciences xCELLigence Real-Time Cell Analysis on Androgen Receptor Antagonism for Viability (AID 2283776);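 note: 22Rv1 human prostate cancer cells growing on impedance electrode plates; area under impedance growth curve at 80 h after dosing as viability; hits lower the growth signal relative to DMSO meaning cytotoxicity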
Results filed as inconclusive are left out. The source made the active and inactive calls. Rule for the calls: active = hit-call score of the fitted dose curve at least 0.9, where 1 is the maximum; inconclusive = response in the unintended direction; inactive = score below 0.9.
Pick one: active, inactive

molecule: O=C1C(Cl)=C(Cl)C(=O)c2ccccc21
categoryLabel: inactive

Here is another molecule to look at.
Task: Any idea what this test logged for COP(=S)(OC)Oc1ccc(Sc2ccc(OP(=S)(OC)OC)cc2)cc1 ?
Output: inactive

====

- Read-out: Macrophage colony-stimulating factor (MCSF), CSF1 (gene 1435)
- protocolSummary: BSK_hDFCGF_MCSF: BioMAP Diversity Plus: hDFCGF Assay for Macrophage colony-stimulating factor (MCSF) Biomarker Activity (AID 2283060)
- testConditions: primary human foreskin fibroblasts; actives raise or lower the signal
Activity calls are given as the source filed them. The calls were made as follows: active = hit-call score of the fitted dose curve at least 0.9, where 1 is the maximum; inactive = score below 0.9.
Please state which outcome applies, choosing from 1 (yes) = active, 0 (no) = inactive

Please review the entries below; each comes with its answer.
molecule: CC(C)CCCCCCOC(=O)c1ccccc1C(=O)OCCCCCCC(C)C
categoryLabel: 0 (no)

molecule: CCC(=O)C(CC(C)N(C)C)(c1ccccc1)c1ccccc1 (stereo not drawn)
categoryLabel: 0 (no)

Task: Hi, do you know how Oc1c(I)cc(I)cc1I came out in this test?
Output: 0 (no)

Task: Per the assay record, what outcome was assigned to O=Cc1cccc(Oc2ccccc2)c1 ?
Output: 0 (no)

Task: What call does the record list for ClCC(Cl)CCl ?
Output: 0 (no)

Task: Answer briefly: the call reported for Nc1ccc(-c2ccc(N)c(Cl)c2)cc1Cl in this assay.
Output: 0 (no)

Task: // param item: COC[C@H](C)N(C(=O)CCl)c1c(C)csc1C ; yields the recorded call
Output: 0 (no)

Task: Entry CN(C)N=O : call = ?
Output: 0 (no)
